Provide the reported Tm of each item.
protocol-details: melting temperature; melt of duplexes
condition-set: sodium 0.0675 M; strand 1 µM
Only the number, expressed in °C, is required.

Inquiry: Could you tell me which Tm is on file for CGACGTGCATCATGTGCTG+CAGCACATTAAGCACGTCG ((((((((.(.((((((((+)))))))).).)))))))) ?
Reply text: 48.6

Inquiry: Consider the substance shown here: CGACGTGCCCTATGTGCTG+CAGCACATAAGGCACGTCG (((((((((.(((((((((+))))))))).))))))))) What is its recorded Tm?
Reply text: 55.6

Inquiry: // Tm lookup, key: CGACGTGCTATATGTGCTG+CAGCACATAGTGCACGTCG ((((((((..(((((((((+)))))))))..))))))))
Reply text: 49

Inquiry: Recorded Tm for CGACGTGCCGGATGTGCTG+CAGCACATCGCGCACGTCG ((((((((..(((((((((+)))))))))..)))))))) , please?
Reply text: 55.4

Inquiry: Bench note: what Tm did CGACGTGCAGGATGTGCTG+CAGCACATACCGCACGTCG ((((((((.(.((((((((+)))))))).).)))))))) show?
Reply text: 53.7

Inquiry: Any idea what its Tm is? The substance is CGACGTGCCGCATGTGCTG+CAGCACATAAAGCACGTCG ((((((((...((((((((+))))))))...))))))))
Reply text: 50.1

Inquiry: Give its Tm value. Item: CGACGTGCCCGATGTGCTG+CAGCACATCGTGCACGTCG ((((((((.((((((((((+)))))))))).))))))))
Reply text: 57.1

====

Can you tell me Tm for the items I'm about to list?
protocol-details: melting temperature; melt of duplexes
condition-set: sodium 0.0675 M; strand 1 µM
A complete answer gives the number and then names the unit.

Inquiry: Quick check: Tm of CGACGTGCAGAATGTGCTG+CAGCACATCAGGCACGTCG ((((((((...((((((((+))))))))...)))))))) ?
Reply text: 51.1 °C

Inquiry: Param item = CGACGTGCGGTATGTGCTG+CAGCACATGGCGCACGTCG (((((((((..((((((((+))))))))..))))))))) ; retrieve measured Tm.
Reply text: 59.9 °C

Inquiry: Entry CGACGTGCCTTATGTGCTG+CAGCACATCACGCACGTCG ((((((((.(.((((((((+)))))))).).)))))))) has what Tm?
Reply text: 46.7 °C

Inquiry: Need Tm, item CGACGTGCGAAATGTGCTG+CAGCACATGGTGCACGTCG ((((((((...((((((((+))))))))...))))))))
Reply text: 50.6 °C

Inquiry: Tm lookup needed for CGACGTGCCAAATGTGCTG+CAGCACATATGGCACGTCG ((((((((((.((((((((+)))))))).)))))))))) , thanks.
Reply text: 56.9 °C

Inquiry: I'd like to know its Tm. The substance in question is CGACGTGCCACATGTGCTG+CAGCACATGTTGCACGTCG ((((((((.((((((((((+)))))))))).))))))))
Reply text: 57.4 °C

Inquiry: Report Tm for CGACGTGCCGTATGTGCTG+CAGCACATCACGCACGTCG ((((((((...((((((((+))))))))...)))))))) please.
Reply text: 51.2 °C

Inquiry: Query: Tm; subject: CGACGTGCCTCATGTGCTG+CAGCACATGTAGCACGTCG ((((((((..(((((((((+)))))))))..))))))))
Reply text: 52.9 °C

Inquiry: Which Tm value belongs to CGACGTGCGCCATGTGCTG+CAGCACATAGTGCACGTCG ((((((((.(.((((((((+)))))))).).)))))))) ?
Reply text: 49 °C

Inquiry: Which Tm reading was recorded for the substance CGACGTGCGACATGTGCTG+CAGCACATTGCGCACGTCG (((((((((..((((((((+))))))))..))))))))) ?
Reply text: 55.3 °C

Inquiry: Given CGACGTGCTCCATGTGCTG+CAGCACATAGAGCACGTCG ((((((((((.((((((((+)))))))).)))))))))) , state its recorded Tm.
Reply text: 56.2 °C

Inquiry: Bench note: what Tm did CGACGTGCAGCATGTGCTG+CAGCACATCTGGCACGTCG ((((((((...((((((((+))))))))...)))))))) show?
Reply text: 49.5 °C

Inquiry: What does the record list as Tm for CGACGTGCCAAATGTGCTG+CAGCACATGACGCACGTCG ((((((((...((((((((+))))))))...)))))))) ?
Reply text: 47.5 °C

Inquiry: I have this substance here, CGACGTGCTGTATGTGCTG+CAGCACATGCTGCACGTCG ((((((((.(.((((((((+)))))))).).)))))))) , and I need its recorded Tm.
Reply text: 54.1 °C

Inquiry: Any idea what Tm was measured for CGACGTGCAGCATGTGCTG+CAGCACATTGGGCACGTCG ((((((((...((((((((+))))))))...)))))))) ?
Reply text: 47.2 °C

Inquiry: Requested field: Tm. Item: CGACGTGCCACATGTGCTG+CAGCACATTTTGCACGTCG ((((((((.(.((((((((+)))))))).).))))))))
Reply text: 48 °C

Inquiry: Which Tm reading was recorded for the substance CGACGTGCCAGATGTGCTG+CAGCACATATTGCACGTCG ((((((((.(.((((((((+)))))))).).)))))))) ?
Reply text: 50.1 °C

Inquiry: Report Tm for CGACGTGCTGTATGTGCTG+CAGCACATACTGCACGTCG ((((((((.((((((((((+)))))))))).)))))))) please.
Reply text: 57.8 °C

Inquiry: State the recorded Tm for this entry: CGACGTGCTGAATGTGCTG+CAGCACATAGAGCACGTCG (((((((((..((((((((+))))))))..)))))))))
Reply text: 52.2 °C

Inquiry: Which Tm is reported for this substance? CGACGTGCACAATGTGCTG+CAGCACATGGGGCACGTCG ((((((((.(.((((((((+)))))))).).))))))))
Reply text: 55.2 °C

Inquiry: Could you share which Tm value was measured for CGACGTGCTCCATGTGCTG+CAGCACATACAGCACGTCG (((((((((..((((((((+))))))))..))))))))) ?
Reply text: 49.6 °C

Inquiry: For the substance shown here, CGACGTGCGTGATGTGCTG+CAGCACATTAGGCACGTCG ((((((((.(.((((((((+)))))))).).)))))))) , give the reported Tm.
Reply text: 54.1 °C

Inquiry: Item CGACGTGCTGTATGTGCTG+CAGCACATTTGGCACGTCG ((((((((...((((((((+))))))))...)))))))) has what recorded Tm?
Reply text: 50.4 °C

====

protocol-details: melting temperature; melt of duplexes
condition-set: sodium 0.0675 M; strand 1 µM
Would you mind telling me the reported Tm of each entry?
The answer is to be given in °C; state only the numeric part.

Inquiry: Could you tell me which Tm is on file for CGACGTGCAACATGTGCTG+CAGCACATGAAGCACGTCG ((((((((..(((((((((+)))))))))..)))))))) ?
Reply text: 54.3

Inquiry: Which Tm value is on record for CGACGTGCCAAATGTGCTG+CAGCACATTATGCACGTCG ((((((((..(((((((((+)))))))))..)))))))) ?
Reply text: 51.2

Inquiry: If you can, please state the reported Tm value of CGACGTGCGGGATGTGCTG+CAGCACATTAGGCACGTCG ((((((((...((((((((+))))))))...)))))))) .
Reply text: 51.9

Inquiry: Requested read-out: Tm. Entry: CGACGTGCGGAATGTGCTG+CAGCACATAAAGCACGTCG ((((((((...((((((((+))))))))...))))))))
Reply text: 55.5

Inquiry: Entry under review: CGACGTGCAGTATGTGCTG+CAGCACATCAAGCACGTCG ((((((((...((((((((+))))))))...)))))))) . Reported Tm?
Reply text: 49.6

Inquiry: Which Tm is reported for this substance? CGACGTGCAACATGTGCTG+CAGCACATAAGGCACGTCG ((((((((...((((((((+))))))))...))))))))
Reply text: 47.8
